molecular target: UniProt O43614; assay: Human orexin 2 receptor radioligand binding (competitive, [3H]-EMPA, HEK293 cell preparations); details: hOX2 Ki (nm)
Sequence (O43614 whole entry): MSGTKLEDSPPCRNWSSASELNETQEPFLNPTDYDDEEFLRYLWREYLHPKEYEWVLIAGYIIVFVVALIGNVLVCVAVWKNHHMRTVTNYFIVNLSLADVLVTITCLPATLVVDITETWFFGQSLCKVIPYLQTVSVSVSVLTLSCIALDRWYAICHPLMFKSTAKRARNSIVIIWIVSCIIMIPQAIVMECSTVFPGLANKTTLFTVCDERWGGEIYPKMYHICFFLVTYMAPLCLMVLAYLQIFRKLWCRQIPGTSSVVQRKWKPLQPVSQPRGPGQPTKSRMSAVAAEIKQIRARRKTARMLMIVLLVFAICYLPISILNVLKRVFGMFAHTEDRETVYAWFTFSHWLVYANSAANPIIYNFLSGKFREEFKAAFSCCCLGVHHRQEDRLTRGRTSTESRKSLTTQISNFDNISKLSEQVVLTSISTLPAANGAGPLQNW
pKi: −log10 of the molar value.
molecules and their reported pKi

[
  {
    "molecule": "Cc1ccc(-n2nccn2)c(C(=O)N2C3CCC2C(COc2cccnn2)C3)n1 (racemic)",
    "system under test": "UniProt O43614",
    "modifier sign": "<",
    "pKi": 5.00
  },
  {
    "molecule": "CCOc1ccccc1C(=O)N1C2CCC1C(COc1nc(C)cc(C)n1)C2 (racemic)",
    "system under test": "UniProt O43614",
    "modifier sign": "=",
    "pKi": 6.60
  },
  {
    "molecule": "Cc1ccc(OCC2CC3CCC2N3C(=O)c2cc(C)ccc2-n2nccn2)nc1 (racemic)",
    "system under test": "UniProt O43614",
    "modifier sign": "=",
    "pKi": 7.85
  },
  {
    "molecule": "Cc1ccc(C(=O)N2C3CCC2C(COc2nccc(C(F)(F)F)n2)C3)c(-n2nccn2)n1 (racemic)",
    "system under test": "UniProt O43614",
    "modifier sign": "≤",
    "pKi": 5.00
  }
]
